Molecular target: Adenosine receptor A1 (Rattus norvegicus, UniProt P25099)
Sequence (P25099 whole entry): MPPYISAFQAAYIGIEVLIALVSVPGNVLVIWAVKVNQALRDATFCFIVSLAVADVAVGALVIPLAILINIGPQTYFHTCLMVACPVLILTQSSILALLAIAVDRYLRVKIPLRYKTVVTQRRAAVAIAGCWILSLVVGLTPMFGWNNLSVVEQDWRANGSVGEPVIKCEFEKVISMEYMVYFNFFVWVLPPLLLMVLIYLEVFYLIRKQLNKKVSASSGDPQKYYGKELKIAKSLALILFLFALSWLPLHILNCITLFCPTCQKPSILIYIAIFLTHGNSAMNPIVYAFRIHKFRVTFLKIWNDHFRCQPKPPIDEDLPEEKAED
Reported Endpoint: Ki (nM)
Note: unit nM is implicit; provide only the numeric part.

Here's what some known entries look like.
>  <Molecule>
Nc1nc(N2CCN3[C@@H](CO)CCC[C@H]3C2)nc2nc(-c3ccco3)nn12 (racemic)

>  <Value>
1300

$$$$
>  <Molecule>
Nc1nc(N2CCN3C[C@@H](CN(Cc4ccncc4)Cc4ccncc4)CC[C@H]3C2)nc2nc(-c3ccco3)nn12 (racemic)

>  <Value>
6000

$$$$

From here, focus on the item given below.
For this molecule ( Nc1nc(NC[C@@H]2CC[C@@H]3CN(c4ncccn4)CCN3C2)nc2nc(-c3ccco3)nn12 (racemic) ), measured Ki is 1600

* * *

biological target: Adenosine receptor A2a (Rattus norvegicus, UniProt P30543); experiment: Displacement of [3H]ZM241385 from adenosine A2A receptor in rat brain membrane; format: cell membranes
Sequence (P30543 whole entry): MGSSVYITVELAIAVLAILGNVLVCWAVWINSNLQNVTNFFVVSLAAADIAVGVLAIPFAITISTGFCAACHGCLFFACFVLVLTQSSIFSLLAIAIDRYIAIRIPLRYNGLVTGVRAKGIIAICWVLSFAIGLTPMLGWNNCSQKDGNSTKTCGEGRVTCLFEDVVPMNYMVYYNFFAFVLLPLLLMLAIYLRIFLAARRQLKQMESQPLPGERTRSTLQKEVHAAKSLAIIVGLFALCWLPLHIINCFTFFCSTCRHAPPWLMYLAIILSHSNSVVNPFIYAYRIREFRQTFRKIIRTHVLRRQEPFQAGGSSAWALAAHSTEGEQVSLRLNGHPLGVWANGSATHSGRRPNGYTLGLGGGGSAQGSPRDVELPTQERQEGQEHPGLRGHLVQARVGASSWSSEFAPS
The entries below are paired with their reported Ki.

Record Nc1nc(N2CCN3CCCCC3C2)nc2nc(-c3ccco3)nn12 (racemic) . Reported Ki: 12 nM (antagonist)

Recorded result, Nc1nc(N2CCN3C[C@@H](COc4ccccc4F)CC[C@H]3C2)nc2nc(-c3ccco3)nn12 (racemic) , Ki: 0.9 nM (antagonist)

For Nc1nc(N2CCN3C[C@@H](CNc4ncccn4)CC[C@H]3C2)nc2nc(-c3ccco3)nn12 (racemic) the compound record lists Ki as 9 nM (antagonist)

Recorded Ki (compound Nc1nc(N2CCN3C[C@@H](Cn4ccnc4)CC[C@H]3C2)nc2nc(-c3ccco3)nn12 (racemic) ): 0.3 nM (antagonist)

// Ki lookup, compound = Nc1nc(N2CCN3C[C@H](COc4cccc(F)c4)CC[C@H]3C2)nc2nc(-c3ccco3)nn12 (mixture of isomers) , result: 53 nM (antagonist)

Lookup result for Nc1cc(N2CCN3[C@@H](COc4ccc5[nH]ccc5c4)CCC[C@H]3C2)nc2nc(-c3ccco3)nn12 (racemic) ; measured Ki: 76 nM (antagonist)

The compound listed as Nc1nc(N2CCN3C[C@H](COc4ccncc4)CC[C@H]3C2)nc2nc(-c3ccco3)nn12 (racemic) has a reported Ki of 81 nM (antagonist)

Entry under test: `Nc1nc(N2CCN3C[C@H](CN(Cc4cccnc4)Cc4cccnc4)CC[C@H]3C2)nc2nc(-c3ccco3)nn12` . Its Ki was 4 nM (antagonist)

* * *

Entries and their measured Ki follow.
molecular target: Adenosine receptor A2a (Rattus norvegicus, UniProt P30543); assay: Displacement of [3H]ZM241385 from adenosine A2A receptor in rat brain membrane; assay type: cell membranes

Completed entries (count: 4):
>  <Compound>
NC[C@H]1CC[C@H]2CN(c3cc(N)n4nc(-c5ccco5)nc4n3)CCN2C1

>  <Ki>
110 nM (antagonist)

$$$$
>  <Compound>
Nc1nc(N2CCN3C[C@@H](CO)CC[C@H]3C2)cc2nc(-c3ccco3)nn12 (racemic)

>  <Ki>
96 nM (antagonist)

$$$$
>  <Compound>
Nc1nc(N2CCN3CCCCC3C2)cc2nc(-c3ccco3)nn12 (racemic)

>  <Ki>
140 nM (antagonist)

$$$$
>  <Compound>
Nc1nc(N2CCN3C[C@@H](CNCc4ccncc4)CC[C@H]3C2)nc2nc(-c3ccco3)nn12 (racemic)

>  <Ki>
36 nM (antagonist)

$$$$

With those in mind, consider the next compound.
Data point: Nc1nc(N2CCN3C[C@H](COc4cc5ccccc5cn4)CC[C@H]3C2)nc2nc(-c3ccco3)nn12 (racemic) ; Ki = 130 nM (antagonist)

* * *

A collection of molecules and their measured remaining at 0.25 h, 2 µM
test: Metabolic stability in rat liver microsomes at 2 uM after 15 mins; format: ADME, Microsome; conditions: read-out: Stability
Record the value in %, omitting the unit from your answer.

>  <Molecule>
Nc1nc(N2CCN3C[C@@H](COc4ccc5ncccc5c4)CC[C@H]3C2)nc2nc(-c3ccco3)nn12

>  <remaining at 0.25 h, 2 µM (%)>
42

$$$$

Summary for this molecule, Nc1nc(N2CCN3C[C@@H](CO)CC[C@H]3C2)cc2nc(-c3ccco3)nn12 (racemic) : remaining at 0.25 h, 2 µM is 100

Reported remaining at 0.25 h, 2 µM of `Nc1nc(N2CCN3CCC[C@@H]3C2)nc2nc(-c3ccco3)nn12` : 67

Reported remaining at 0.25 h, 2 µM of Nc1nc(NC[C@@H]2CC[C@@H]3CN(c4ncccn4)CCN3C2)nc2nc(-c3ccco3)nn12 (racemic) : 89

Reported remaining at 0.25 h, 2 µM for `Cn1nc(C(F)(F)F)c(CN2CCN(c3nc(N)n4nc(-c5ccco5)nc4n3)CC2)c1Cl` was 14

The reported remaining at 0.25 h, 2 µM of the molecule Nc1nc(N2CCN3C[C@@H](COc4cccc(F)c4)CC[C@H]3C2)nc2nc(-c3ccco3)nn12 (racemic) was 57

response.value for Nc1cc(N2CCN3C[C@@H](CO)CC[C@H]3C2)nc2nc(-c3ccco3)nn12 (racemic) (field: remaining at 0.25 h, 2 µM) = 97

Record `Nc1nc(N2CCN3CCC[C@H]3C2)nc2nc(-c3ccco3)nn12` . Reported remaining at 0.25 h, 2 µM: 69

Query Nc1nc(N2CCN3C[C@@H](CO)CC[C@H]3C2)nc2nc(-c3ccco3)nn12 (racemic) yields remaining at 0.25 h, 2 µM of 100

* * *

Measured Ki of individual entries
biological target: Adenosine receptor A1 (Rattus norvegicus); assay: Displacement of [3h]DPCPX from adenosine A receptor in rat cerebral cortex membrane

>  <Compound>
Nc1nc(N2CCN3C[C@@H](COc4ccncc4)CC[C@H]3C2)nc2nc(-c3ccco3)nn12 (racemic)

>  <Ki>
> 1000 nM

$$$$

// switching to the query compound
Ki for `Nc1nc(N2CCN3CCC[C@@H]3C2)cc2nc(-c3ccco3)nn12` is 1100 nM

* * *

molecular target: Adenosine receptor A2a (Rattus norvegicus, UniProt P30543); test: Displacement of [3H]ZM241385 from adenosine A2A receptor in rat brain membrane; assay type: cell membranes
Reported Endpoint: Ki

Some molecules with known Ki results, for comparison:
>  <Molecule>
Nc1nc(N2CCN3CCC[C@H]3C2)cc2nc(-c3ccco3)nn12

>  <Value>
110 nM (antagonist)

$$$$
>  <Molecule>
Nc1nc(NC[C@H]2CCCN2Cc2c(F)cccc2F)nc2nc(-c3ccco3)nn12

>  <Value>
3.6 nM (antagonist)

$$$$
>  <Molecule>
NC[C@H]1CC[C@H]2CN(c3nc(N)n4nc(-c5ccco5)nc4n3)CCN2C1 (racemic)

>  <Value>
16 nM (antagonist)

$$$$
>  <Molecule>
Nc1nc(N2CCN3C[C@@H](COc4cccc(F)c4)CC[C@H]3C2)nc2nc(-c3ccco3)nn12 (racemic)

>  <Value>
0.2 nM (antagonist)

$$$$
>  <Molecule>
Nc1nc(N2CCN3C[C@H](CO)CC[C@H]3C2)nc2nc(-c3ccco3)nn12 (racemic)

>  <Value>
71 nM (antagonist)

$$$$
>  <Molecule>
Nc1nc(N2CCN3C[C@H](COc4ccc5ccccc5n4)CC[C@H]3C2)nc2nc(-c3ccco3)nn12

>  <Value>
7 nM (antagonist)

$$$$

Please fill in: Ki reported for Nc1nc(N2CCN3C[C@H](COc4cccc5cnccc45)CC[C@H]3C2)nc2nc(-c3ccco3)nn12 (racemic) = 73 nM (antagonist)

Measured Ki of `Nc1nc(N2CCN3C[C@@H](COc4ccc5ncccc5c4)CC[C@H]3C2)nc2nc(-c3ccco3)nn12` : 0.6 nM (antagonist)

* * *

molecular target: Adenosine receptor A2a (Rattus norvegicus); assay: Displacement of [3H]ZM241385 from adenosine A2A receptor in rat brain membrane; format: cell membranes
Some molecules, each annotated with its measured Ki.

>  <Molecule>
Nc1nc(N2CCN3C[C@@H](COc4cc5ccccc5cn4)CC[C@H]3C2)nc2nc(-c3ccco3)nn12 (racemic)

>  <Value>
0.036 µM (antagonist)

$$$$
>  <Molecule>
Nc1nc(N2CCN3C[C@@H](COc4ncnc5ccccc45)CC[C@H]3C2)nc2nc(-c3ccco3)nn12 (racemic)

>  <Value>
0.019 µM (antagonist)

$$$$
>  <Molecule>
Nc1nc(N2CCN3C[C@@H](CNCc4ccc(F)cc4F)CC[C@H]3C2)nc2nc(-c3ccco3)nn12

>  <Value>
0.002 µM (antagonist)

$$$$
>  <Molecule>
COc1ccc(OC[C@H]2CC[C@H]3CN(c4nc(N)n5nc(-c6ccco6)nc5n4)CCN3C2)cc1 (racemic)

>  <Value>
0.035 µM (antagonist)

$$$$

Entry `Nc1nc(N2CCN3C[C@@H](CN(Cc4cccnc4)Cc4cccnc4)CC[C@H]3C2)nc2nc(-c3ccco3)nn12` , Ki reported as 0.002 µM (antagonist)

Looking up `Nc1nc(N2CCN3C[C@H](CNc4ncccn4)CC[C@H]3C2)nc2nc(-c3ccco3)nn12` , I see its Ki listed as 0.045 µM (antagonist)

Please fill in: Ki reported for Nc1nc(N2CCN3[C@@H](COc4ccccc4)CCC[C@H]3C2)nc2nc(-c3ccco3)nn12 (racemic) = 0.013 µM (antagonist)

According to the records, this molecule `Cc1nn(C)c(Cl)c1CNC[C@H]1CC[C@H]2CN(c3nc(N)n4nc(-c5ccco5)nc4n3)CCN2C1` displays Ki of 0.03 µM (antagonist)

So, `NC[C@@H]1CC[C@H]2CN(c3cc(N)n4nc(-c5ccco5)nc4n3)CCN2C1` ? Its Ki was 0.37 µM (antagonist)

Record summary for Nc1nc(N2CCN3[C@@H](CO)CCC[C@H]3C2)nc2nc(-c3ccco3)nn12 (racemic) : reported Ki = 0.003 µM (antagonist)
